Attribution: paper PMC11063076

molecular target: TcAkt (T. cruzi Akt-like kinase), PH domain (Trypanosoma cruzi, UniProt Q4D6D3)
Sequence (Q4D6D3 entry or part of it): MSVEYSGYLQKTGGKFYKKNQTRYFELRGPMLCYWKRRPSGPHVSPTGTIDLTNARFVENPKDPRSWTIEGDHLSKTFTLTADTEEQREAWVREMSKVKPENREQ
pKd: −log10 of the molar value.

{"columns": ["molecule", "measured target", "pKd"],
 "data": [
  ["O=P(O)(O)O[C@H]1[C@H](O)[C@@H](OP(=O)(O)O)[C@H](OP(=O)(O)O)[C@@H](OP(=O)(O)O)[C@H]1O [Ins(1,3,4,5)P4]", "TcAkt (T. cruzi Akt-like kinase), PH domain (Trypanosoma cruzi, UniProt Q4D6D3)", 4.40]
]}
